Taken from PubChem BioAssay AID1347416.

- MEASUREMENT_NOTES: qHTS Validation assay for Inhibitors of Plasmodium falciparum Dd2 growth in vitro; further: nearly all actives have a fitted effect of over 70% in size; further: potency means the concentration at half of the fitted maximal effect
- CONDITIONS_USED: P. falciparum Dd2 in RBCs, SYBR Green growth, 72 h; series mostly up to 28.7 µM
In all, about 4,100 compounds went through this assay and about 1,600 (39%) were called active. About 25% were inconclusive and are not listed. This is one part of the list.
Each entry below lists one item and its recorded Potency value.

[
  {
    "COMPOUND": "O=C1CC(c2ccccc2)N(Cc2ccncc2)CCCN(C(=O)Nc2ccccc2F)CCN1 (stereo not given)",
    "RESULT_TYPE": "Potency",
    "RESULT": "1.68 µM (active)"
  }
]

[Q] Which Potency value belongs to NC(=O)C1CCN(CC(=O)Nc2cccc(C(=O)Nc3cccc(C(F)(F)F)c3)c2)CC1 ?
[A] 6.68 µM (active)

[Q] Data request, read-out Potency, for O=[N+]([O-])c1ccc(N2CCN(C(=S)NC3CCCCC3)CC2)cc1
[A] 1.88 µM (active)

[Q] Query (compound): COc1ccccc1CNC[C@@H]1C=C(C)[C@H](Cc2nc3c(C)cccc3[nH]2)C[C@H]1C(C)C ; field requested: Potency
[A] 9.68 µM (active)

[Q] I'd like to know its Potency. The compound in question is CCOC(=O)C1=C(C)NC(=O)CC1c1cc(OC)c(OC)cc1Br (stereo not given)
[A] 5.31 µM (active)

###

- MEASUREMENT_NOTES: qHTS Validation assay for Inhibitors of Plasmodium falciparum Dd2 growth in vitro; further: nearly all actives have a fitted effect of over 70% in size; further: potency means the concentration at half of the fitted maximal effect
- CONDITIONS_USED: P. falciparum Dd2 in RBCs, SYBR Green growth, 72 h; series mostly up to 28.7 µM
- Description: Malaria, a parasitic disease spread to humans through the bite of a Plasmodium infected Anopheles mosquito, continues to be a global health burden affecting millions of people, with an estimated 228 million cases and 405,000 deaths in 2018. Concerns about safety and limitations of current antimalarial treatments strongly emphasize the need to develop new therapeutic options. […]
In all, about 4,100 compounds went through this assay and about 1,600 (39%) were called active. Not shown: some 25% with an inconclusive outcome. This is one part of the list.
RESULT_TYPE: Potency

// worked examples, Potency included
[
  {
    "MOLECULE": "COc1ccc(OC)c(NC(=O)c2ccc3c(c2)N(S(=O)(=O)c2ccccc2)CC3)c1",
    "Potency": "inactive"
  },
  {
    "MOLECULE": "CN1CCN(c2cc(=O)c3ccnc(N4CCOCC4)c3o2)CC1",
    "Potency": "inactive"
  },
  {
    "MOLECULE": "CCC(=O)N(C1CCOCC1)C1CCN(Cc2cccc(Cl)c2)CC1",
    "Potency": "inactive"
  },
  {
    "MOLECULE": "O=C1CN(Cc2ccc(-c3ccccc3)cc2)CCN1c1cc(Cl)ncn1",
    "Potency": "inactive"
  },
  {
    "MOLECULE": "O=C(NCCCNc1ccnc2cc(Cl)ccc12)c1ccccc1F",
    "Potency": "0.842 µM (active)"
  }
]

[Q] Query (molecule): CCC(C)c1ccc(NC(=O)c2cccnc2)cc1 (stereo not drawn) ; field requested: Potency
[A] inactive

[Q] Record request: Potency value, item COC(=O)CNC(=O)N1CCCCC1c1nc(CCOc2cccc(C)c2)no1 (stereo not drawn)
[A] inactive

[Q] Endpoint output: Potency of CN(C)S(=O)(=O)N1CCCC(Cn2c(C3CC3)nc3cccnc32)C1 (stereo not drawn) . Value?
[A] inactive

[Q] Given the molecule O=C(NCCNc1ccnc2cc(Cl)ccc12)c1ccccc1F , what is its reported Potency?
[A] 1.68 µM (active)

[Q] Can you share its Potency? I mean this molecule: O=C(c1ccc([N+](=O)[O-])o1)N1CCN(c2nc3c(Cl)cccc3s2)CC1
[A] 4.22 µM (active)

[Q] Given the molecule COc1cc(OC)c(NC(=O)N2CCc3cc(S(=O)(=O)N4CCC(C)CC4)ccc32)cc1Cl , what is its reported Potency?
[A] inactive

[Q] Would you kindly share the measured Potency for Nc1nonc1-n1nnc(C(=O)N/N=C/c2ccc(Cl)cc2)c1-c1ccc2c(c1)OCO2 ?
[A] 0.376 µM (active)
